This listing pairs binders with measured pKd.
# tested.on: T1, Ssd1 ΔN338 (Saccharomyces cerevisiae (S288C/BY4741 …, UniProt P24276 339-1250))
# T1 sequence: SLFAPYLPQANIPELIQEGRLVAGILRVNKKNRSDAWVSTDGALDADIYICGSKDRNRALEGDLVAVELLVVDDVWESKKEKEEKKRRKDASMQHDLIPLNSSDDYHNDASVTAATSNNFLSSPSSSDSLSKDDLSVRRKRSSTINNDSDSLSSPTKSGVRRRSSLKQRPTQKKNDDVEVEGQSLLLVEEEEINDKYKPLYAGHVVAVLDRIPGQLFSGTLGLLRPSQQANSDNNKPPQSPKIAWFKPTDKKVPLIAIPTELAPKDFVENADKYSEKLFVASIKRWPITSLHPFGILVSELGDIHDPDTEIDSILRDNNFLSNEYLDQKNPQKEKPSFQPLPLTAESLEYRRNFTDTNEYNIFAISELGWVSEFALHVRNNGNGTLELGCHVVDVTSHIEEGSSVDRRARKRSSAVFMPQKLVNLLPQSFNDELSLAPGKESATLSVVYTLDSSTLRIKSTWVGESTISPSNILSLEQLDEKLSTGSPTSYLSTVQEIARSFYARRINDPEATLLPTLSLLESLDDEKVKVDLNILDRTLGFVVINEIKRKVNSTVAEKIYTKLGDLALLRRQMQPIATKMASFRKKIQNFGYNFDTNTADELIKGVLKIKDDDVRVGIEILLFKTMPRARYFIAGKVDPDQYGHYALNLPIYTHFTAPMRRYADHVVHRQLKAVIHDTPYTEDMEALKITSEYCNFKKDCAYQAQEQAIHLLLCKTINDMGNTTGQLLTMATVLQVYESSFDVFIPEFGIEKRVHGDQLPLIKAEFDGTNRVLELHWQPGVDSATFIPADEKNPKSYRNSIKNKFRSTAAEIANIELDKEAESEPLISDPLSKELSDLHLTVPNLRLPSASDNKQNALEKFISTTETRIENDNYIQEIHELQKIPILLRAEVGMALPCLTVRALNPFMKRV
# method: fluorescence anisotropy; Anisotropy: 20 nM RNA, 20 mM HEPES pH 7.5, 150 mM NaCl, 1 mM DTT, 0.01% Tween 20, 15 and 30 min on ice; EMSA: 0.5 uM RNA, 20 mM HEPES pH 7.5, 150 mM K acetate
# run.parameters: protein: recombinant; tags: His tag cleaved with 3C protease; label: 5'-Cy3
pKd: −log10 of the molar value.
quantity.measured: pKd

binder | measured.number
CUUCCAACUAAUUUUUAUCCCUCUAA (ssRNA) [SUN4-DUO_Mut2] | 6.98
CAACUAAUUUUCACUCCUUUAA (ssRNA) [DUO-21mer] | 7.44
UAAUUUUCACUCCUUUAA (ssRNA) [DUO-17mer] | 6.91
ACUAAUUUUCACUCCUUUAA (ssRNA) [DUO-19mer] | 7.38
